Consider the following compounds; for each one, report its inhibition.
biological target: Cannabinoid receptor 1 (Homo sapiens, UniProt P21554); experiment: Displacement of radioligand from human CB1 receptor expressed in HEK293 cells at 10 uM; type: cell-based
Sequence (P21554 whole entry): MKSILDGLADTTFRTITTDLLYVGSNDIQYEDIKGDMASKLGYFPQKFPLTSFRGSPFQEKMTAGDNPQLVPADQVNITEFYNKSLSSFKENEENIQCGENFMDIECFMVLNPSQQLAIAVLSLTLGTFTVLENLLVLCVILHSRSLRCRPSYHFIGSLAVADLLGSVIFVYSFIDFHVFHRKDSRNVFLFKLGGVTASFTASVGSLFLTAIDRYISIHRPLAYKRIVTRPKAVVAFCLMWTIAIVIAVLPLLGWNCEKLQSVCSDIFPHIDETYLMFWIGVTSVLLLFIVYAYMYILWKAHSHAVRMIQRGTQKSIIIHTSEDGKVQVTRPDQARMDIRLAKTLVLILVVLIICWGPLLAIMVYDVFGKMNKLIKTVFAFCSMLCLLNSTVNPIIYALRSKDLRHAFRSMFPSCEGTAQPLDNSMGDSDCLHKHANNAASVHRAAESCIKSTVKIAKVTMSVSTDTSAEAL
Enter your answer as a number in %; do not include the unit.

Exercise: Enter reported inhibition observed with Cannabinoid receptor 1 (Homo sapiens, UniProt P21554) for Cc1c(C(=O)NC2CC2)oc2ccc(S(=O)(=O)N3CC(C)CC(C)C3)cc12 (centres undefined)
Key: 83

Exercise: // fetch Cannabinoid receptor 1 (Homo sapiens, UniProt P21554) inhibition for Cc1c(C(=O)Nc2ccccc2Cl)oc2ccc(S(=O)(=O)N3CC(C)CC(C)C3)cc12 (centres undefined)
Key: 44

Exercise: // lookup inhibition | system=Cannabinoid receptor 1 (Homo sapiens, UniProt P21554) | key= CCOc1ccccc1CNC(=O)c1oc2ccc(S(=O)(=O)N3CC(C)CC(C)C3)cc2c1C (centres undefined)
Key: 96

Exercise: Lab note: need inhibition for Cc1c(C(=O)NCc2ccccc2)oc2ccc(S(=O)(=O)N3CC(C)CC(C)C3)cc12 (centres undefined) on Cannabinoid receptor 1 (Homo sapiens, UniProt P21554), anyone have it?
Key: 92

Exercise: Quick check: inhibition on Cannabinoid receptor 1 (Homo sapiens, UniProt P21554), item COc1ccccc1CNC(=O)c1oc2ccc(S(=O)(=O)N3CC(C)CC(C)C3)cc2c1C (centres undefined) ?
Key: 97

Exercise: Enter reported inhibition observed with Cannabinoid receptor 1 (Homo sapiens, UniProt P21554) for CCN(Cc1ccccc1)C(=O)c1oc2ccc(S(=O)(=O)N3CC(C)CC(C)C3)cc2c1C (centres undefined)
Key: 98

Exercise: Request - read-out inhibition | tested on Cannabinoid receptor 1 (Homo sapiens, UniProt P21554) | compound Cc1c(C(=O)NCc2ccccc2Cl)oc2ccc(S(=O)(=O)N3CC(C)CC(C)C3)cc12 (centres undefined)
Key: 95

Exercise: Checklist item: inhibition tested on Cannabinoid receptor 1 (Homo sapiens, UniProt P21554), entry Cc1cccc(NC(=O)c2oc3ccc(S(=O)(=O)N4CC(C)CC(C)C4)cc3c2C)c1C (centres undefined) , value?
Key: 84

Exercise: Requested read-out inhibition, target or system Cannabinoid receptor 1 (Homo sapiens, UniProt P21554), entry Cc1c(C(=O)Nc2cccc(Cl)c2)oc2ccc(S(=O)(=O)N3CC(C)CC(C)C3)cc12 (centres undefined)
Key: 70

###

species: Homo sapiens; assay: Selectivity ratio, Ki for human CB2 receptor to Ki for human CB1 receptor
quantity: Ratio Ki
Write no unit; give the number alone.

Exercise: Given the entry Cc1c(C(=O)N2CCCCCC2)oc2ccc(S(=O)(=O)N3CC(C)CC(C)C3)cc12 (stereo not given) , report its measured Ratio Ki.
Key: 25

Exercise: Entry Cc1c(C(=O)N(C)Cc2ccccc2)oc2ccc(S(=O)(=O)N3CC(C)CC(C)C3)cc12 (stereo not given) has what Ratio Ki?
Key: 112

Exercise: For the compound shown here, Cc1c(C(=O)NC2CCCC2)oc2ccc(S(=O)(=O)N3CC(C)CC(C)C3)cc12 (stereo not given) , give the reported Ratio Ki.
Key: 82

Exercise: Find the recorded Ratio Ki belonging to Cc1c(C(=O)NC2CCCc3ccccc32)oc2ccc(S(=O)(=O)N3CC(C)CC(C)C3)cc12 (stereo not given) and report it.
Key: 4560

Exercise: Quick one: Ratio Ki for CCN(Cc1ccccc1)C(=O)c1oc2ccc(S(=O)(=O)N3CC(C)CC(C)C3)cc2c1C (stereo not given) ?
Key: 34
